procedure.text: Aqueous solubility in 50 mM phosphate buffer (HPLC/DAD)
Assay type: physicochemical
experimental.parameters: 50 mM phosphate buffer, 23 °C, pH 7.4, aqueous buffer, kinetic from dmso stock, aqueous solubility class; read-out: aq. solub.
metric: solubility at 24 h

C[C@]1(O)C[C@@H](n2ncc(-c3onc(-c4ccccc4Cl)c3-c3cnccn3)c2C(F)(F)F)C1 [Example 101]
1 to 2.99 µM
COCc1c(-c2c(F)cccc2Cl)noc1-c1cnn(CCC(C)(C)O)c1C(F)(F)F [Example 67]
> 10 µM
CCOC(=O)c1c(-c2cccc(OC)c2Cl)noc1-c1cnn([C@H]2C[C@@](C)(O)C2)c1C(F)(F)F [Example 131]
> 10 µM
COc1cccc(-c2noc(-c3cnn([C@H]4C[C@@](C)(O)C4)c3C)c2-c2ncccn2)c1Cl [Example 112]
> 10 µM

Enquiry: Request the reported solubility at 24 h associated with CCOC(=O)c1c(-c2c(F)cccc2Cl)noc1-c1cnn(CC(C)(C)O)c1C(F)(F)F [Example 8]
Return: 3 to 9.99 µM

Enquiry: Request the reported solubility at 24 h associated with Cc1c(-c2onc(-c3c(F)cccc3Cl)c2-c2ncccn2)cnn1[C@H]1C[C@@](C)(O)C1 [Example 111]
Return: > 10 µM

Enquiry: Request the reported solubility at 24 h associated with CC(C)(O)CCn1ncc(-c2onc(-c3ccccc3Cl)c2COC2CC2)c1C(F)(F)F [Example 78]
Return: > 10 µM

* * *

procedure.text: Microsomal stability: incubation with human liver microsomes, residual parent compound by HPLC-MS/MS
Type: in vitro ADME
experimental.parameters: human liver microsomes 0.5 mg/ml, compound 1 μM, pH 7.4, 37° C., up to 60 min; read-out: t1/2 hLM
# maps each entry to its half-life at 1 μM

Worked cases, half-life at 1 μM given:
CC(=O)c1c(-c2c(F)cccc2Cl)noc1-c1cnn(C[C@@H](C)O)c1C(F)(F)F
40 to 100 min
Cc1c(-c2onc(-c3c(F)cccc3Cl)c2COC2CC2)cnn1[C@H]1C[C@@](C)(O)C1
40 to 100 min
CC(C)(O)Cn1ncc(-c2onc(-c3c(F)cccc3Cl)c2C(=O)OC2CC2)c1C(F)(F)F
40 to 100 min
COCc1c(-c2c(F)cccc2Cl)noc1-c1cnn([C@H]2C[C@@](C)(O)C2)c1C(F)(F)F
> 100 min
CCOC(=O)c1c(-c2c(F)cccc2Cl)noc1-c1cnn(CC(O)CC)c1C(F)(F)F (racemic)
10 to 40 min

Enquiry: Request the reported half-life at 1 μM associated with CCC(O)Cn1ncc(-c2onc(-c3c(F)cccc3Cl)c2-c2nccs2)c1C(F)(F)F (racemic)
Return: 10 to 40 min

Enquiry: Request the reported half-life at 1 μM associated with C[C@]1(O)C[C@H](n2ncc(-c3onc(-c4c(F)cccc4Cl)c3C(=O)OC3CC3)c2C(F)(F)F)C1
Return: 40 to 100 min

* * *

procedure.text: Microsomal stability: incubation with human liver microsomes, residual parent compound by HPLC-MS/MS
Format: in vitro ADME
experimental.parameters: pH 7.4; human liver microsomes, 1 μM compound, 0.5 mg/ml HLM, 37° C., up to 60 min; read-out: t1/2 hLM
# maps each entry to its half-life at 1 μM

Worked cases, half-life at 1 μM given:
COc1cccc(-c2noc(-c3cnn([C@H]4C[C@@](C)(O)C4)c3C(F)(F)F)c2COC2CC2)c1Cl
0.667 to 1.67 h
Cc1c(-c2onc(-c3c(F)cccc3Cl)c2-c2ncccn2)cnn1CCC(C)(C)O
> 1.67 h
C[C@@H](O)Cn1ncc(-c2onc(-c3c(F)cccc3Cl)c2-c2ncccn2)c1C(F)(F)F
0.667 to 1.67 h
Cc1c(-c2onc(-c3c(F)cccc3Cl)c2-c2ncccn2)cnn1[C@H]1C[C@@](C)(O)C1
> 1.67 h
CC(C)(O)Cn1ncc(-c2onc(-c3c(F)cccc3Cl)c2-c2ncccn2)c1C(F)(F)F
> 1.67 h

Enquiry: Request the reported half-life at 1 μM associated with CN(C)CCOc1cccc(-c2noc(-c3cnn(CCC(C)(C)O)c3C(F)(F)F)c2-c2ncccn2)c1Cl
Return: > 1.67 h

Enquiry: Request the reported half-life at 1 μM associated with COc1cccc(-c2noc(-c3cnn([C@H]4C[C@@](C)(O)C4)c3C)c2-c2ncccn2)c1Cl
Return: > 1.67 h

Enquiry: Request the reported half-life at 1 μM associated with C[C@]1(O)C[C@@H](n2ncc(-c3onc(-c4c(F)cccc4Cl)c3-c3ncccn3)c2C(F)(F)F)C1
Return: > 1.67 h

Enquiry: Request the reported half-life at 1 μM associated with COCc1c(-c2cccc(OCCN(C)C)c2Cl)noc1-c1cnn([C@H]2C[C@@](C)(O)C2)c1C(F)(F)F
Return: > 1.67 h

Enquiry: Request the reported half-life at 1 μM associated with CCN(CC)CCCOc1cccc(-c2noc(-c3cnn(CCC(C)(C)O)c3C)c2-c2ncccn2)c1Cl
Return: > 1.67 h

Enquiry: Request the reported half-life at 1 μM associated with CC(C)(O)CCn1ncc(-c2onc(-c3c(F)cccc3Cl)c2-c2ncccn2)c1C(F)(F)F
Return: > 1.67 h

Enquiry: Request the reported half-life at 1 μM associated with CC(C)(O)CCn1ncc(-c2onc(-c3cccc(OCCN4CC5(COC5)C4)c3Cl)c2-c2ncccn2)c1C(F)(F)F
Return: 0.167 to 0.666 h

Enquiry: Request the reported half-life at 1 μM associated with COC(=O)c1c(-c2cccc(OCCN3CCOCC3)c2Cl)noc1-c1cnn(C[C@H](C)O)c1C(F)(F)F
Return: 0.0333 to 0.167 h

Enquiry: Request the reported half-life at 1 μM associated with COc1cccc(-c2noc(-c3cnn([C@H]4C[C@@](C)(O)C4)c3C(F)(F)F)c2-c2ncccn2)c1Cl
Return: > 1.67 h

Enquiry: Request the reported half-life at 1 μM associated with C[C@]1(O)C[C@@H](n2ncc(-c3onc(-c4c(F)cccc4Cl)c3-c3ccncn3)c2C(F)(F)F)C1
Return: > 1.67 h

* * *

procedure.text: Aqueous solubility in 50 mM phosphate buffer (HPLC/DAD)
Assay type: physicochemical
experimental.parameters: 50 mM phosphate buffer, 23 °C, pH 7.4, aqueous buffer, kinetic from dmso stock, aqueous solubility class; read-out: aq. solub.
Procedure: To achieve this, the samples (final volume 500 μl, 200 μM compound concentration) were incubated for 24 hours at 23° C. under continuous shaking at 1400 rpm (Thermomixer, Eppendorf) in aqueous phosphate buffers (pH 4.0, 6.0, 7.4 and 9.0) with a final DMSO concentration of 1%. […] Supernatants were measured via HPLC equipped with a UV detector and concentrations were calculated according to signals of a standard curve. […]
metric: solubility at 24 h

Worked cases, solubility at 24 h given:
CCOC(=O)c1c(-c2c(F)cccc2Cl)noc1-c1cnn(CCC(C)(C)O)c1C(F)(F)F
3 to 9.99 µM
[2H]C(C)(O)Cn1ncc(-c2onc(-c3c(F)cccc3Cl)c2C(=O)OCC)c1C(F)(F)F (racemic)
> 10 µM
Cc1c(-c2onc(-c3ccccc3Cl)c2-c2ncccn2)cnn1CCC(C)(C)O
> 10 µM
C[C@@H](O)Cn1ncc(-c2onc(-c3c(F)cccc3Cl)c2COC2CCC2)c1C(F)(F)F
> 10 µM
CC(C)OCc1c(-c2c(F)cccc2Cl)noc1-c1cnn(C[C@@H](C)O)c1C(F)(F)F
> 10 µM

Enquiry: Request the reported solubility at 24 h associated with C[C@@H](O)Cn1ncc(-c2onc(-c3c(F)cccc3Cl)c2C(=O)NC2CCCC2)c1C(F)(F)F
Return: > 10 µM

Enquiry: Request the reported solubility at 24 h associated with [2H]C(C)(O)Cn1ncc(-c2onc(-c3c(F)cccc3Cl)c2-c2nccs2)c1C(F)(F)F (racemic)
Return: < 1 µM

* * *

procedure.text: Microsomal stability: incubation with human liver microsomes, residual parent compound by HPLC-MS/MS
Format: in vitro ADME
experimental.parameters: human liver microsomes 0.5 mg/ml, compound 1 μM, pH 7.4, 37° C., up to 60 min; read-out: t1/2 hLM
metric: half-life at 1 μM

Worked cases, half-life at 1 μM given:
CCOC(=O)c1c(-c2c(F)cccc2Cl)noc1-c1cnn(C[C@H](C)O)c1C(F)(F)F
40 to 100 min
COCc1c(-c2c(F)cccc2Cl)noc1-c1cnn(CCC(C)(C)O)c1C(F)(F)F
> 100 min
CCOC(=O)c1c(-c2c(F)cccc2Cl)noc1-c1cnn(C[C@@H](O)C(F)(F)F)c1C(F)(F)F
2 to 9.99 min
COC(=O)c1c(-c2c(F)cccc2Cl)noc1-c1cnn(CCC(C)(C)O)c1C
> 100 min

Enquiry: Request the reported half-life at 1 μM associated with OC1(Cn2ncc(-c3onc(-c4c(F)cccc4Cl)c3-c3nccs3)c2C(F)(F)F)CC1
Return: 10 to 40 min

Enquiry: Request the reported half-life at 1 μM associated with C[C@@H](O)Cn1ncc(-c2onc(-c3c(F)cccc3Cl)c2COC2CC2)c1C(F)(F)F
Return: 10 to 40 min

Enquiry: Request the reported half-life at 1 μM associated with COC(=O)c1c(-c2ccccc2Cl)noc1-c1cnn([C@H]2C[C@](C)(O)C2)c1C
Return: > 100 min

Enquiry: Request the reported half-life at 1 μM associated with CC(C)(O)CCn1ncc(-c2onc(-c3c(F)cccc3Cl)c2COC2CC2)c1C(F)(F)F
Return: > 100 min

Enquiry: Request the reported half-life at 1 μM associated with CC(C)(O)CCn1ncc(-c2onc(-c3ccccc3Cl)c2COC2CC2)c1C(F)(F)F
Return: 40 to 100 min

Enquiry: Request the reported half-life at 1 μM associated with [2H]C(C)(O)Cn1ncc(-c2onc(-c3c(F)cccc3Cl)c2C(=O)OC)c1C(F)(F)F (racemic)
Return: > 100 min

Enquiry: Request the reported half-life at 1 μM associated with OC(Cn1ncc(-c2onc(-c3c(F)cccc3Cl)c2-c2nccs2)c1C(F)(F)F)C(F)(F)F (racemic)
Return: 10 to 40 min

Enquiry: Request the reported half-life at 1 μM associated with C[C@H](O)Cn1ncc(-c2onc(-c3c(F)cccc3Cl)c2C(=O)OC2COC2)c1C(F)(F)F
Return: 10 to 40 min

Enquiry: Request the reported half-life at 1 μM associated with CCOC(=O)c1c(-c2c(F)cccc2Cl)noc1-c1cnn([C@H]2C[C@@](C)(O)C2)c1C(F)(F)F
Return: > 100 min

Enquiry: Request the reported half-life at 1 μM associated with COC(=O)c1c(-c2c(F)cccc2Cl)noc1-c1cnn(C[C@H](C)O)c1C(F)(F)F
Return: 10 to 40 min
